Molecular target: AHK3 (Arabidopsis thaliana, UniProt Q9C5U1)
Sequence (Q9C5U1 whole entry): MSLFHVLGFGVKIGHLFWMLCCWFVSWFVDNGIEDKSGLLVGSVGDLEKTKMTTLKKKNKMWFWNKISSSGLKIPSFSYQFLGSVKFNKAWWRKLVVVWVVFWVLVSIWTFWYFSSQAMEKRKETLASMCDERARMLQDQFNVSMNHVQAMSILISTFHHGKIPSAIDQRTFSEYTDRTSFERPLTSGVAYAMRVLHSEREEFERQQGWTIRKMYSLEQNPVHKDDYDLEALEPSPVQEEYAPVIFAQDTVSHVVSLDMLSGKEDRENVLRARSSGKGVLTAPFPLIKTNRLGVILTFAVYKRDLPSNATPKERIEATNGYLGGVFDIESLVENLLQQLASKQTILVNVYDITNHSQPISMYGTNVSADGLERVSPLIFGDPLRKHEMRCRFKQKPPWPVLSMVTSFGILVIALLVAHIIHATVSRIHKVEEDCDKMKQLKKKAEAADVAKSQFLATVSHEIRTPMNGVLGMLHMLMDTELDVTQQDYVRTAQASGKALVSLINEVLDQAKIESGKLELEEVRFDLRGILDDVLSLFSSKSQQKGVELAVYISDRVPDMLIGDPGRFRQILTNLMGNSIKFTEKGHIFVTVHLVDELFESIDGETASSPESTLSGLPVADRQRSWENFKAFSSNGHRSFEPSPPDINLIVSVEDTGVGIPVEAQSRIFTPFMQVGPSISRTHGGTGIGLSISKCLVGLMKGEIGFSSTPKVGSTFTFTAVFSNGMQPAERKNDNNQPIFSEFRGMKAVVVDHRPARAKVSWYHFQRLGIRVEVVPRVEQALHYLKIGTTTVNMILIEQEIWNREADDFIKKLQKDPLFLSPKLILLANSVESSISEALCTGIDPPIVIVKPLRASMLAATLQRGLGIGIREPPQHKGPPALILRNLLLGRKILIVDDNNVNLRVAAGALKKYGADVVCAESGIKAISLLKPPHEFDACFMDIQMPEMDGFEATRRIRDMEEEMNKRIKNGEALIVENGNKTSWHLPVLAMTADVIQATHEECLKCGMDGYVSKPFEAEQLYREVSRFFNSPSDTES
Experiment: Activation of cytokinin receptors (E. coli KMI001 beta-galactosidase reporter)
Settings: 28 h incubation; n.a. means no activation
pEC50: −log10 of the molar value.
# maps each entry to its pEC50

{"columns": ["compound", "systemName", "valueRelationSign", "pEC50"],
 "data": [
  ["COc1ccc(Nc2nc(Cl)nc3[nH]cnc23)cc1", "AHK3 (Arabidopsis thaliana, UniProt Q9C5U1)", "=", 4.48],
  ["COc1cccc(Nc2nc(N)nc3nc[nH]c23)c1", "AHK3 (Arabidopsis thaliana, UniProt Q9C5U1)", "=", 4.69],
  ["Nc1nc(Nc2ccc(F)cc2)c2nc[nH]c2n1", "AHK3 (Arabidopsis thaliana, UniProt Q9C5U1)", "=", 4.71],
  ["Fc1cccc(Nc2nc(F)nc3[nH]cnc23)c1", "AHK3 (Arabidopsis thaliana, UniProt Q9C5U1)", "=", 4.38],
  ["COc1ccccc1Nc1nc(F)nc2[nH]cnc12", "AHK3 (Arabidopsis thaliana, UniProt Q9C5U1)", "=", 4.76],
  ["Fc1nc(Nc2ccc(Cl)cc2)c2nc[nH]c2n1", "AHK3 (Arabidopsis thaliana, UniProt Q9C5U1)", "=", 4.57],
  ["Oc1ccccc1Nc1nc(F)nc2[nH]cnc12", "AHK3 (Arabidopsis thaliana, UniProt Q9C5U1)", "=", 4.34],
  ["Nc1nc(Nc2cccc(O)c2)c2nc[nH]c2n1", "AHK3 (Arabidopsis thaliana, UniProt Q9C5U1)", "=", 5.11],
  ["Clc1cccc(Nc2nc(Cl)nc3nc[nH]c23)c1", "AHK3 (Arabidopsis thaliana, UniProt Q9C5U1)", "=", 4.70],
  ["Oc1ccc(Nc2nc(F)nc3[nH]cnc23)cc1", "AHK3 (Arabidopsis thaliana, UniProt Q9C5U1)", "<", 4.30],
  ["CSc1nc(Nc2cccc(F)c2)c2nc[nH]c2n1", "AHK3 (Arabidopsis thaliana, UniProt Q9C5U1)", "=", 4.49],
  ["Nc1nc(Nc2ccccc2)c2nc[nH]c2n1", "AHK3 (Arabidopsis thaliana, UniProt Q9C5U1)", "=", 4.60],
  ["Cc1nc(Nc2cccc(Cl)c2)c2nc[nH]c2n1", "AHK3 (Arabidopsis thaliana, UniProt Q9C5U1)", "<", 4.30],
  ["Oc1ccccc1Nc1nc(Cl)nc2nc[nH]c12 [Compound 8, 2-chloro-6-(2-hydroxyanilino)purine]", "AHK3 (Arabidopsis thaliana, UniProt Q9C5U1)", "=", 4.50],
  ["Nc1nc(Nc2cccc(Cl)c2)c2nc[nH]c2n1", "AHK3 (Arabidopsis thaliana, UniProt Q9C5U1)", "=", 4.37],
  ["COc1ccccc1Nc1nc(N)nc2[nH]cnc12", "AHK3 (Arabidopsis thaliana, UniProt Q9C5U1)", "=", 4.54],
  ["CSc1nc(Nc2cccc(Cl)c2)c2nc[nH]c2n1", "AHK3 (Arabidopsis thaliana, UniProt Q9C5U1)", "=", 4.54],
  ["COc1ccc(Nc2nc(N)nc3[nH]cnc23)cc1", "AHK3 (Arabidopsis thaliana, UniProt Q9C5U1)", "=", 4.58],
  ["Cc1ccc(Nc2nc(Cl)nc3[nH]cnc23)cc1C", "AHK3 (Arabidopsis thaliana, UniProt Q9C5U1)", "<", 4.30],
  ["Sc1nc(Nc2cccc(Cl)c2)c2nc[nH]c2n1", "AHK3 (Arabidopsis thaliana, UniProt Q9C5U1)", "=", 4.38]
]}
